Each recorded value in this set is attributed to PubChem BioAssay AID2472.

- Protocol description: qHTS Assay for Inhibitors of Fructose-1,6-bisphosphate Aldolase from Giardia Lamblia: Coupling assay counterscreen; note: % is set by controls: 0 for no effect and ±100 for the full control effect
- Test conditions: coupling enzyme system counterscreen, AmpLite Red fluorescence; at 58.2 µM (top of the series)
In all, about 290,000 compounds went through this assay and about 2,000 (0.69%) were called active. Cut-off read from the data, not from the text of the source: active = activity change below about -30%; inactive = the rest, inconclusive results apart. The full list was thinned out, with actives kept by preference.
Could you please pick one outcome from this set? label 1 for active, label 0 for inactive

Worked examples, 5 molecules total:
Molecule	Assigned label
COc1ccc(OC)c(-n2cc3c(=O)n(C)c(=O)n(C)c3c2)c1	label 1
CCOc1ccc(N(C)Cc2cc(=O)oc3ccc(OC)cc23)cc1	label 0
COc1ccc(C2=Nn3c(nnc3-c3ccccc3O)SC2)cc1	label 0
Cc1nn(-c2ccccc2)c(Cl)c1/C=C/C(=O)c1ccc(O)cc1	label 0
O=S(=O)(Nc1ccc2nc(-c3ccco3)[nH]c2c1)c1ccccc1	label 1

Request: Fill in: this test's call for COc1ccccc1C1C(C(N)=O)=C(C)Nc2nc(CCCO)nn21 (stereo not drawn) is ___
Response: label 0

Request: Fill in: this test's call for COc1ccc(Br)cc1C1C2C=CCC(C)C2C(=O)N1Cc1ccccc1 (stereo not drawn) is ___
Response: label 0

Request: Fill in: this test's call for "Cn1c(=O)c2cn(-c3cccc4ccccc34)cc2n(C)c1=O" is ___
Response: label 1
